system: SARS-CoV2
measuredParameter: EC50
Your reply should be a number followed by the unit it is expressed in.

Entry `CN(C)Cc1c[nH]c2ccc(OCc3ccccc3)cc12` : EC50 on SARS-CoV2 = 35 µM
